- Tested on: HIV in lymphocyte derived CEM cells
- Assay: Cellular Infection Assay, antiviral efficacy in HIV infected CEM cells (XTT cytopathic procedure)
- Format: cell-based
- Experimental Conditions: Human immunodeficiency virus 1, CCRF-CEM; CEM cells; reduces HIV cytopathic effects 50% relative to untreated control; read-out: Antiviral Efficacy EC50
Readout Label: EC50 (nM)

Molecule	Experimental System	Readout Label	Unit Tag	Reported
CCc1cc(SC2=C(O)CC(CCc3ccc(O)cc3)(C(C)C)OC2=O)c(C(C)(C)C)cc1CO (stereo not shown)	HIV in lymphocyte derived CEM cells	EC50	nM	800
Cc1cc(SC2=C(O)CC(CCc3ccc(N)cc3)(CCc3ccc(N)cc3)OC2=O)c(C(C)(C)C)cc1CO	HIV in lymphocyte derived CEM cells	EC50	nM	1200
CCNS(=O)(=O)Oc1cc(C(C)(C)C)c(SC2=C(O)CC(CCc3ccc(O)cc3)(C3CCCCC3)OC2=O)cc1C (stereo not shown)	HIV in lymphocyte derived CEM cells	EC50	nM	1400
Cc1cc(SC2=C(O)CC(CCc3ccc(O)cc3)(C3CCCC3)OC2=O)c(C(C)(C)C)cc1CO (stereo not shown)	HIV in lymphocyte derived CEM cells	EC50	nM	600
Cc1cc(SC2=C(O)CC(CCc3ccc(O)cc3)(C(C)C)OC2=O)c(C(C)(C)C)cc1OCCO (racemic)	HIV in lymphocyte derived CEM cells	EC50	nM	1500

P: Cc1cc(SC2=C(O)CC(CCc3ccc(O)cc3)(CCc3ccc(O)cc3)OC2=O)c(C(C)(C)C)cc1N
Q: Cc1cc(SC2=C(O)CC(CCc3ccc(O)cc3)(C(C)C)OC2=O)c(C(C)(C)C)cc1NS(=O)(=O)c1cccs1 (stereo not shown)
Which record would sort first by descending EC50, P or Q ? Write down the label attached to your selection.
P

* * *

Listing of entries alongside the reported CC50.
- Assay: Cellular toxicity in uninfected CEM cells (TC50)
- Format: cell-based
- Experimental Conditions: human, inhibits 50% of the viability of uninfected cells

Record excerpt, results attached:
Molecule	Readout Label	Reported
Cc1cc(SC2=C(O)CC(CCc3ccc(O)cc3)(C(C)C)OC2=O)c(C(C)(C)C)cc1NC(=S)N1CCNCC1 (stereo not drawn)	CC50	> 100 µM
CCNS(=O)(=O)Oc1cc(C(C)(C)C)c(SC2=C(O)CC(CCc3ccc(O)c(OC)c3)(c3ccc(OCCO)cc3)OC2=O)cc1C (stereo not drawn)	CC50	> 100 µM

Could you share which CC50 value was measured for CCc1cc(SC2=C(O)CC(CCc3ccc(O)cc3)(C(C)C)OC2=O)c(C(C)(C)C)cc1CO (stereo not drawn) ?
> 100 µM

* * *

- System: HIV in lymphocyte derived CEM cells
- Assay: Cellular Infection Assay, antiviral efficacy in HIV infected CEM cells (XTT cytopathic procedure)
- Assay type: cell-based
- Experimental Conditions: Human immunodeficiency virus 1, CCRF-CEM; CEM cells; reduces HIV cytopathic effects 50% relative to untreated control; read-out: Antiviral Efficacy EC50
Counter-ions that a name gives are not always drawn.
Readout Label: EC50 (µM)

Recorded results for 8 compounds are shown here.
Compound	Readout Label	Reported
Cc1cc(SC2=C(O)CC(C)(CCc3ccc(O)cc3)OC2=O)c(C(C)(C)C)cc1OS(=O)(=O)N1CCN(C)CC1 (stereo not drawn)	EC50	2.3
Cc1cc(SC2=C(O)CC(CCc3ccc(N)cc3)(C(C)C)OC2=O)c(C(C)(C)C)cc1OS(=O)(=O)c1ccc(C#N)cc1 (stereo not drawn)	EC50	0.4
Cc1cc(SC2=C(O)CC(CCc3ccc4c(c3)OCO4)(C(C)C)OC2=O)c(C(C)(C)C)cc1CO (stereo not drawn)	EC50	1
Cc1cc(SC2=C(O)CC(CCc3cccc(O)c3)(c3ccccc3)OC2=O)c(C(C)(C)C)cc1CO (stereo not drawn)	EC50	6.1
Cc1cc(SC2=C(O)CC(CCc3ccc(O)cc3)(C(C)C)OC2=O)c(C(C)(C)C)cc1NC(=S)N1CCNCC1 (stereo not drawn)	EC50	43
Cc1cc(SC2=C(O)CC(CCc3ccc(O)cc3)(c3ccccc3)OC2=O)c(C(C)(C)C)cc1CO (stereo not drawn)	EC50	4.7
Cc1cc(SC2=C(O)CC(CCc3ccc(O)cc3)(C(C)C)OC2=O)c(C(C)(C)C)cc1N(C)C (stereo not drawn)	EC50	1.9
Cc1cc(SC2=C(O)CC(C)(CCc3ccc(O)cc3)OC2=O)c(C(C)(C)C)cc1N (stereo not drawn) [Example 11, monohydrochloride]	EC50	3.7

a: Cc1cc(SC2=C(O)CC(CCc3ccc(O)cc3)(C(C)C)OC2=O)c(C(C)(C)C)cc1NC(=O)c1ccccc1 (stereo not drawn)
b: CCCCC1(CCc2ccc(O)cc2)CC(O)=C(Sc2cc(C)c(CO)cc2C(C)(C)C)C(=O)O1 (racemic)
Could you please tell me which of these two has the higher EC50: a or b ? Select an item and report its label.
a
